procedure details: self-splicing fitness, log relative to wild type (ln ratio); higher = more splicing; Tetrahymena group I intron in knt gene, E. coli kanamycin selection, DiMSum; sequences stand for … in CUCUCU…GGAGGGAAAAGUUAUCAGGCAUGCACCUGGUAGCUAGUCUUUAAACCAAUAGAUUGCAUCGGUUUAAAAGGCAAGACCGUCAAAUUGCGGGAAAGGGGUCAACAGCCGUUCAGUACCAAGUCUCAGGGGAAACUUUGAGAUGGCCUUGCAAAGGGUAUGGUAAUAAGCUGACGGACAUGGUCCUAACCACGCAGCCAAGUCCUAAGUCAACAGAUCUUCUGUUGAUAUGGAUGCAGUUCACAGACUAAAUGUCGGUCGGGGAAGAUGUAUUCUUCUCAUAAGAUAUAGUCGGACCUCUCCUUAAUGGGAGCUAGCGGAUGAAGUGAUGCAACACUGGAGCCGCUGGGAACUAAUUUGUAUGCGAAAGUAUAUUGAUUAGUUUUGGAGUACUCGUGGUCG;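 note: selection with 25 µg/mL kanamycin versus none on LB agar overnight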
condition: 30 °C
Kind request: treat -2 as inclusive, so self-splicing fitness (ln) at -2 or higher is yes (1), anything lower is no (0).

Example entries begin here.
{"query sequence": "CGGAAGCAAUAUUACGUAUG", "label": "yes (1)"}
{"query sequence": "GCGGAGCAAUAUUACGAGUG", "label": "no (0)"}
{"query sequence": "UACCAGCAAUAUUACGACAA", "label": "yes (1)"}
{"query sequence": "AGCUAGCAAUAUUACGAGGU", "label": "no (0)"}
{"query sequence": "GAGUAGCAAUAUUACGUGAA", "label": "no (0)"}
{"query sequence": "UUGGAGCAAUAUUACGGCCA", "label": "no (0)"}

[in] self-splicing fitness (ln) >= -2 for `GAAUAGCAAUAUUACGUGAC` ?
[out] no (0)

[in] self-splicing fitness (ln) >= -2 for `UCUAAGCAAUAUUACGACGA` ?
[out] yes (1)

----------
// values below are reported self-splicing fitness (ln)
procedure details: self-splicing fitness, log relative to wild type (ln ratio); higher = more splicing; Tetrahymena group I intron in knt gene, E. coli kanamycin selection, DiMSum; sequences stand for … in CUCUCU…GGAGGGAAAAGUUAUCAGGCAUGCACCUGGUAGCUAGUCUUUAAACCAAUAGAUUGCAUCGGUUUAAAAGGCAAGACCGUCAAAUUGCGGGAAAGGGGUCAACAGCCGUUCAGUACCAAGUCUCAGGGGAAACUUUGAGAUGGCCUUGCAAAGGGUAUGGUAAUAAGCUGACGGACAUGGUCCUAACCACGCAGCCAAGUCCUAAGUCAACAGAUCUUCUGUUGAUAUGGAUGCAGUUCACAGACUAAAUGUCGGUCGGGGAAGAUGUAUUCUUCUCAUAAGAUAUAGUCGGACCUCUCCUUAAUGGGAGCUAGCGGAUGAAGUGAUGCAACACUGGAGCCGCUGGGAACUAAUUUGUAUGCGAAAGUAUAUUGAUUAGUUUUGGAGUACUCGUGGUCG
condition: 37 °C
Lab note: record just the number, no unit beside it.

{"query sequence": "ACCUAGCAAUAUUACGGCAG", "property": "self-splicing fitness (ln)", "recorded number": -1.16}

# sequence `CAUGAGCAAUAUUACGCCUA` ; its self-splicing fitness (ln) = -1.75

# sequence `UACUAGCAAUAUUACGCGAG` ; its self-splicing fitness (ln) = -1.59

# sequence `UCGCAGCAAUAUUACGGGUC` ; its self-splicing fitness (ln) = -2.14

# sequence `ACAGAGCAAUAUUACGCUGA` ; its self-splicing fitness (ln) = -1.47

# sequence `UGUGAGCAAUAUUACGACGA` ; its self-splicing fitness (ln) = 0.278

# sequence `UCACAGCAAUAUUACGGACA` ; its self-splicing fitness (ln) = -0.687

# sequence `CCGCAGCAAUAUUACGGACU` ; its self-splicing fitness (ln) = -2.31
